tested.on: human muscarinic M4 receptor (Homo sapiens, UniProt P08173)
Construct: expressed in transfected cells
Sequence (P08173 whole entry): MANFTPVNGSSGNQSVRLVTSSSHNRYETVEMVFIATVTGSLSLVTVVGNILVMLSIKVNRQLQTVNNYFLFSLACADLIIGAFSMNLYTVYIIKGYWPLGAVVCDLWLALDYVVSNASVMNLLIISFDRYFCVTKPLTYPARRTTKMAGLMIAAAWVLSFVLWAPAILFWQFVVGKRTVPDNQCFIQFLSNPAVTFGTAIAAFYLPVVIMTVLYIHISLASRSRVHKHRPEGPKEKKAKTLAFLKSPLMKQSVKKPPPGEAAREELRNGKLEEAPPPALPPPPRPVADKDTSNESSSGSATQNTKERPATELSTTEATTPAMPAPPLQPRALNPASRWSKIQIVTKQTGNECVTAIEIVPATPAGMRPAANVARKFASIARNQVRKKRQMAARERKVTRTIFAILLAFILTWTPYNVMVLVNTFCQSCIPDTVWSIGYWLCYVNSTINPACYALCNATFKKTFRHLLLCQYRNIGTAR
test.description: Alphascreen Surefire phospho-ERK1/2 functional assay, M4
Assay type: cell-based
condition.notes: CHO, read-out: M4 % Emax cf. ACh, CHO cells stably expressing human M4; Emax relative to ACh
Emax values by entry
assay.endpoint: Emax (%)

# compound, tested.on, readout.value
records = [
    ("CCOC(=O)N1CC2CN(C3CCC(C#N)(c4ccccc4)CC3)CCC21 (single isomer, unassigned) [17-1 Isomer 2]", "human muscarinic M4 receptor (Homo sapiens, UniProt P08173)", 61),
    ("CCOC(=O)N[C@H]1CCN(C2CCC3(CC2)C(=O)Nc2ccc(F)cc23)C1 (single isomer, unassigned) [2-8 isomer 1]", "human muscarinic M4 receptor (Homo sapiens, UniProt P08173)", 10),
    ("CC#CCOC(=O)N1CCCN(C2CCC(C#N)(c3ccc(OC)cn3)CC2)CC1 (single isomer, unassigned) [3-32 Isomer 1]", "human muscarinic M4 receptor (Homo sapiens, UniProt P08173)", 30),
    ("Cc1noc([C@@H]2CCCN(C3CCC4(CC3)C(=O)Nc3ccccc34)C2)n1 (single isomer, unassigned) [22-1 Isomer 1]", "human muscarinic M4 receptor (Homo sapiens, UniProt P08173)", 47),
    ("CCOC(=O)N[C@H]1CCN(C2CCC(C#N)(c3cccc(Cl)c3)CC2)C1 (single isomer, unassigned) [1-10 Isomer 2]", "human muscarinic M4 receptor (Homo sapiens, UniProt P08173)", 24),
    ("CCOC(=O)N[C@H]1CCN(C2CCC(C#N)(c3cccc(C)c3)CC2)C1 (single isomer, unassigned) [1-9 Isomer 2]", "human muscarinic M4 receptor (Homo sapiens, UniProt P08173)", 12),
    ("CCCC(=O)N1CCCN(C2CCC3(CC2)C(=O)Nc2ccccc23)CC1 (single isomer, unassigned) [4-3 isomer 2]", "human muscarinic M4 receptor (Homo sapiens, UniProt P08173)", 20),
    ("CCOC(=O)NCC1CCN(C2CCC(C#N)(c3ccccc3)CC2)CC1 (single isomer, unassigned) [6-2-Isomer 2]", "human muscarinic M4 receptor (Homo sapiens, UniProt P08173)", 49),
    ("CCOC(=O)N[C@@H]1CCN(C2CCC(C#N)(c3cccc(F)c3)CC2)C1 (single isomer, unassigned) [1-6 Isomer 2]", "human muscarinic M4 receptor (Homo sapiens, UniProt P08173)", 49),
    ("CCOC(=O)N(C)[C@@H]1CCN(C2CCC3(CC2)C(=O)Nc2cccnc23)C1 (single isomer, unassigned) [2-21 isomer 2]", "human muscarinic M4 receptor (Homo sapiens, UniProt P08173)", 86),
    ("CCOC(=O)N1CCCN(C2CCC(C#N)(c3ccccc3Cl)CC2)CC1 (mixture of isomers) [3-4 mixture of isomers]", "human muscarinic M4 receptor (Homo sapiens, UniProt P08173)", 46),
    ("Cc1ccc2c(c1)NC(=O)C21CCC(N2CCC[C@@H](c3nc(C)no3)C2)CC1 (single isomer, unassigned) [22-4 Isomer 1]", "human muscarinic M4 receptor (Homo sapiens, UniProt P08173)", 39),
    ("Cc1ccc2c(c1)C1(CCC(N3CCC[C@@H](c4nc(C)no4)C3)CC1)C(=O)N2 (single isomer, unassigned) [22-3 Isomer 1]", "human muscarinic M4 receptor (Homo sapiens, UniProt P08173)", 40),
    ("N#CC1(c2ccc(F)cn2)CCC(N[C@@H]2CC[C@H](c3nc(C(F)(F)F)no3)C2)CC1 (single isomer, unassigned) [28-1 Isomer 2]", "human muscarinic M4 receptor (Homo sapiens, UniProt P08173)", 45),
    ("CCOC(=O)N[C@@H]1CCN(C2CCC(C#N)(c3ccccc3)CC2)C1 (single isomer, unassigned) [1-2 Isomer 2]", "human muscarinic M4 receptor (Homo sapiens, UniProt P08173)", 52),
    ("CCOC(=O)N[C@H]1CCN(C2CCC3(CC2)C(=O)Nc2ccc(C)cc23)C1 (single isomer, unassigned) [2-5 isomer 1]", "human muscarinic M4 receptor (Homo sapiens, UniProt P08173)", 5),
    ("CCOC(=O)N1CCCN(C2CCC3(CC2)CN(S(C)(=O)=O)c2ncccc23)CC1 (single isomer, unassigned) [4-19 isomer 1]", "human muscarinic M4 receptor (Homo sapiens, UniProt P08173)", 97),
    ("CCOC(=O)N[C@H]1CCN(C2CCC3(CC2)C(=O)N(C(=O)OCC)c2ccccc23)C1 (single isomer, unassigned) [2-14 isomer 2]", "human muscarinic M4 receptor (Homo sapiens, UniProt P08173)", 56),
    ("CCOC(=O)N1CCCN(C2CCC3(CC2)C(=O)Nc2cc(C#N)ccc23)CC1 (single isomer, unassigned) [4-13 isomer 2]", "human muscarinic M4 receptor (Homo sapiens, UniProt P08173)", 39),
    ("CCOC(=O)N[C@H]1CCN(C2CCC3(CC2)C(=O)Nc2ccccc23)C1 (single isomer, unassigned) [2-1 isomer 1]", "human muscarinic M4 receptor (Homo sapiens, UniProt P08173)", 10),
    ("CCOC(=O)N1CCCN(C2CCC(C#N)(c3cccc(F)c3)CC2)CC1 (mixture of isomers) [3-2 mixture of isomers]", "human muscarinic M4 receptor (Homo sapiens, UniProt P08173)", 76),
    ("CCOC(=O)N[C@H]1CCN(C2CCC3(CC2)C(=O)Nc2ccc(OC)cc23)C1 (single isomer, unassigned) [2-10 isomer 1]", "human muscarinic M4 receptor (Homo sapiens, UniProt P08173)", 39),
    ("Cc1ccc2c(c1)C1(CCC(N3CCC4(CC(c5nc(C)no5)C4)C3)CC1)C(=O)N2 (single isomer, unassigned) [26-1 Isomer 2]", "human muscarinic M4 receptor (Homo sapiens, UniProt P08173)", 50),
    ("CCc1noc(C2CC3(CCN(C4CCC5(CC4)C(=O)Nc4ccccc45)C3)C2)n1 (single isomer, unassigned) [26-3 Isomer 1]", "human muscarinic M4 receptor (Homo sapiens, UniProt P08173)", 72),
    ("CCOC(=O)N1CCCN(C2CCC3(CC2)C(=O)Nc2ccc(C#N)cc23)CC1 (single isomer, unassigned) [4-14 isomer 1]", "human muscarinic M4 receptor (Homo sapiens, UniProt P08173)", 24),
    ("CCOC(=O)N[C@H]1CCN(C2CCC3(CC2)C(=O)Nc2cnc(OC)cc23)C1 (single isomer, unassigned) [2-19 isomer 1]", "human muscarinic M4 receptor (Homo sapiens, UniProt P08173)", 19),
]

Numbers sourced from patent US10759751B2.
